# Test system: rat small intestine tissue
# assay overview: Rat small intestine (ileum) segments: inhibition of nifedipine-sensitive force
# Format: cell-based
# Parameters: concentration or dose not given beside the values
# condition context: integral of nifedipine-sensitive force pre- and 30 min post-compound
# Method: The ability of the compounds of the invention to relax rat small intestine tissue as a model for the treatment of irritable bowel syndrome is described as follows. Male rats (Harlan, Sprague Dawley, 250–350 g) were sacrificed by decapitation. […] Changes in muscle tension were measured with isometric force transducers (Grass, FT-03C) and recorded using AcqKnowledge data acquisition system (AcqKnowledge for MP100WS, Biopac Systems Inc., Goleta, Calif.). […]
reported metric: % Inhibition of force (RSI strips)
Report field: quantity (unit follows the number).

As a guide, the following entries are already answered.
>>> measurement("CCOC(=O)CN1CCN(C(=O)CSc2c(-c3cc(Cl)ccc3O)c3cc(C(F)(F)F)ccc3[nH]c2=O)CC1")
"46%"
>>> measurement("CN(C)C1CCN(C(=O)CSc2c(-c3cc(Cl)ccc3O)c3cc(C(F)(F)F)ccc3[nH]c2=O)CC1")
"58.5%"
>>> measurement("O=C(CCN1CCCCC1)CSc1c(-c2cc(Cl)ccc2O)c2cc(C(F)(F)F)ccc2[nH]c1=O")
"29%"

[in] Please report the recorded % Inhibition of force (RSI strips) for O=C(CSc1c(-c2cc(Cl)ccc2O)c2cc(C(F)(F)F)ccc2[nH]c1=O)N1CCN(CCO)CC1 .
[out] 22.5%

[in] Please report the recorded % Inhibition of force (RSI strips) for O=C(CSc1c(-c2cc(Cl)ccc2O)c2cc(C(F)(F)F)ccc2[nH]c1=O)N1CCN(CCOCCO)CC1 .
[out] 9%

[in] Please report the recorded % Inhibition of force (RSI strips) for NC(=O)C1CCN(C(=O)CSc2c(-c3cc(Cl)ccc3O)c3cc(C(F)(F)F)ccc3[nH]c2=O)CC1 .
[out] 62%
